Values from the Deep4Chem optical property database

Assay: solvent given as SMILES
Conditions: in ClC(Cl)Cl
readoutKind: emission maximum (nm)
The response must be a number in nm with no trailing unit.

Example compounds with recorded emission maximum:
[
  {
    "smilesData": "c1ccc(-c2nc(-c3ccccc3)nc(-c3ccc(-n4c5ccccc5c5c6c(ccc54)C4(c5ccccc5-c5ccccc54)c4ccccc4-6)cc3)n2)cc1",
    "readoutKind": "emission maximum",
    "unitLabel": "nm",
    "readoutValue": 496.99
  },
  {
    "smilesData": "CCN1C(=CC2=C([O-])C(=Cc3[se]c4ccccc4[n+]3CC)C2=O)[Se]c2ccccc21",
    "readoutKind": "emission maximum",
    "unitLabel": "nm",
    "readoutValue": 714
  },
  {
    "smilesData": "CCCCn1c2ccc(-c3ccc4ccccc4c3)cc2c2ccc3c4cc(-c5ccc6ccccc6c5)ccc4n(CCCC)c3c21",
    "readoutKind": "emission maximum",
    "unitLabel": "nm",
    "readoutValue": 418
  },
  {
    "smilesData": "CN(C)c1ccc(/C=C/c2ccc(-c3nc(C#N)c(C#N)n3C)cc2)cc1",
    "readoutKind": "emission maximum",
    "unitLabel": "nm",
    "readoutValue": 500
  },
  {
    "smilesData": "CC(=O)c1ccc(-c2nc3ccc(N(C)C)c(Cl)c3s2)cc1",
    "readoutKind": "emission maximum",
    "unitLabel": "nm",
    "readoutValue": 506
  },
  {
    "smilesData": "O=c1c2cc3ccc4cccc5ccc(c2c(=O)n1-c1ccccc1)c3c45",
    "readoutKind": "emission maximum",
    "unitLabel": "nm",
    "readoutValue": 461
  }
]

Proceeding to the next compound to report its emission maximum.
Form: compound = `c1ccc(-c2nc(-c3ccccc3)n3ccccc23)cc1` ; emission maximum = 454

----------
Assay: solvent given as SMILES
Settings: in C1CCOC1
readoutKind: emission maximum (nm)
The response must be a number in nm with no trailing unit.

Example compounds with recorded emission maximum:
[
  {
    "compound": "Cc1ccc(C(=O)/C=C/c2ccc(N(C)C)cc2)cc1",
    "emission maximum, nm": 503
  },
  {
    "compound": "C(=C\\c1ccccc1/C=C/c1c2ccccc2cc2ccccc12)/c1ccncc1",
    "emission maximum, nm": 498
  },
  {
    "compound": "C(=C\\c1ccc(N(c2ccccc2)c2ccccc2)cc1)/c1ccc(-c2cc(-c3ccccn3)nc(-c3ccccn3)c2)cc1",
    "emission maximum, nm": 502
  },
  {
    "compound": "CC1=CC(C)=[N+]2C1=C(c1ccc(N3CCOCC3)cc1)c1c(C)cc(C)n1[B-]2(F)F",
    "emission maximum, nm": 514
  }
]

Proceeding to the next compound to report its emission maximum.
Form: compound = O=P1(c2ccccc2)C(c2ccc(N(c3ccccc3)c3ccccc3)cc2)=Cc2cc3ccccc3cc21 (stereo not given) ; emission maximum = 511

----------
# Lookup of reported emission maximum keyed by entry
Assay: solvent given as SMILES
Conditions: in ClCCl
The response must be a number in nm with no trailing unit.

Example compounds with recorded emission maximum:
[
  {
    "compound": "CC(C)(C)NC(=O)c1ccc(-c2cc3ccccc3o2)c2ccc3c4ccccc4c4ccccc4c3c12",
    "readoutValue": 441
  },
  {
    "compound": "COc1cc(OC)cc(C2=CC(c3ccccc3)=C(c3ccccc3)C2)c1",
    "readoutValue": 449
  },
  {
    "compound": "O=c1oc2ccccc2c2c1c(=O)oc1cc(O)c3ccccc3c12",
    "readoutValue": 529
  },
  {
    "compound": "N#Cc1cnc(-c2c3ccccc3c(-c3ccccc3)c3ccccc23)nc1",
    "readoutValue": 504
  }
]

Form: compound = `COc1ccc(/C=C/C2=CC(/C=C/c3ccc(OC)cc3)=[O+][B-](F)(F)O2)cc1` ; emission maximum = 538

Form: compound = `C1=Cc2ccc(N(c3ccccc3)c3ccccc3)cc2C2(c3cc(N(c4ccccc4)c4ccccc4)ccc31)c1ccccc1-c1ccccc12` ; emission maximum = 461
